Values compiled from patent US5935932A.

- targetUnderTest: bradykinin receptors in Guinea Pig Ileum (Cavia porcellus)
- Construct: describes the Guinea Pig Ileum assay used to analyze the present compounds; from tissue; host or cells: isolated guinea pig ileum
- Sequence (O70526 1-372): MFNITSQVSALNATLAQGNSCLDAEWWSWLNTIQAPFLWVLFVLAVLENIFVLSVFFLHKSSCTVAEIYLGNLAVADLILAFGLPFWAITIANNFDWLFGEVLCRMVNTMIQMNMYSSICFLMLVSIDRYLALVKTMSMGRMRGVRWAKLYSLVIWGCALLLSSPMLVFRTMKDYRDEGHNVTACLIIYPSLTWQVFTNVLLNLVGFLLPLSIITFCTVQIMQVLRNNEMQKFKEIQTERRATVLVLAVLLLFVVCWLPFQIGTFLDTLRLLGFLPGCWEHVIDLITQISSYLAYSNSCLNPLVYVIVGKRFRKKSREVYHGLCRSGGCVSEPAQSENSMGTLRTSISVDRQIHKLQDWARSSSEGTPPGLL
- experimentNotes: Guinea Pig Ileum functional assay
- Type: cell-based
- measurementParameters: number in parenthesis is pA2, read-out: Ileum, pA2 (I=inhibitor) (converted)
Where a SMILES comes first, the peptide text is derived from it. [ ]: non-standard residue; d: D form. dPhe(F5) = N[C@H](Cc1c(F)c(F)c(F)c(F)c1F)C(=O)O; Hyp = O=C(O)[C@@H]1C[C@@H](O)CN1; 2Thi = N[C@@H](Cc1cccs1)C(=O)O
parameter: Kb (nM)

# molecule, parameter, unitSpec, valueObserved
records = [
    ("N=C(N)NCCC[C@@H](N)C(=O)N[C@@H](CCCNC(=N)N)C(=O)N1CCC[C@H]1C(=O)N1C[C@H](O)C[C@H]1C(=O)NCC(=O)N[C@H](C(=O)N[C@@H](CO)C(=O)N[C@@H](C(=O)N[C@@H](Cc1c(F)c(F)c(F)c(F)c1F)C(=O)N[C@@H](CCCNC(=N)N)C(=O)O)C1Cc2ccccc2C1)C1Cc2ccccc2C1 [Compound B10178]", "Kb", "nM", 398),
    ("CC(C)C[C@H](NC(=O)[C@@H](Cc1c(F)c(F)c(F)c(F)c1F)NC(=O)[C@H](CO)NC(=O)[C@H](Cc1cccs1)NC(=O)CNC(=O)[C@@H]1C[C@@H](O)CN1C(=O)[C@@H]1CCCN1C(=O)[C@H](CCCNC(=N)N)NC(=O)[C@H](N)CCCNC(=N)N)C(=O)N[C@@H](CCCNC(=N)N)C(=O)O [Compound B10172] (H-[dR]RP[Hyp]G[2Thi]S[dPhe(F5)]LR-OH; N-terminus and C-terminus assumed)", "Kb", "nM", 50.1),
]

* * *

- targetUnderTest: bradykinin receptors in Guinea Pig Ileum (Cavia porcellus)
- Construct: describes the Guinea Pig Ileum assay used to analyze the present compounds; from tissue; host or cells: isolated guinea pig ileum
- experimentNotes: Guinea Pig Ileum functional assay
- Type: cell-based
- measurementParameters: number in parenthesis is pA2, read-out: Ileum, pA2 (I=inhibitor) (converted)

# sampleSmiles, unitSpec, Kb
records = [
    ("N=C(N)NCCC[C@@H](N)C(=O)N[C@@H](CCCNC(=N)N)C(=O)N1CCC[C@H]1C(=O)N1C[C@H](O)C[C@H]1C(=O)NCC(=O)N[C@@H](Cc1cccs1)C(=O)N[C@@H](CO)C(=O)N[C@H](Cc1c(F)c(F)c(F)c(F)c1F)C(=O)N[C@@H](Cc1c(F)c(F)c(F)c(F)c1F)C(=O)N[C@@H](CCCNC(=N)N)C(=O)O", "nM", 10),
    ("N=C(N)NCCC[C@@H](N)C(=O)N[C@@H](CCCNC(=N)N)C(=O)N1CCC[C@H]1C(=O)N1C[C@H](O)C[C@H]1C(=O)NCC(=O)N[C@H](C(=O)N[C@@H](CO)C(=O)N[C@H](Cc1c(F)c(F)c(F)c(F)c1F)C(=O)N[C@H](C(=O)N[C@@H](CCCNC(=N)N)C(=O)O)C1CCCCC1)C1Cc2ccccc2C1", "nM", 7.94),
]

* * *

- targetUnderTest: bradykinin receptors in Guinea Pig Ileum (Cavia porcellus)
- Construct: describes the Guinea Pig Ileum assay used to analyze the present compounds; from tissue; host or cells: isolated guinea pig ileum
- experimentNotes: Guinea Pig Ileum functional assay
- Format: cell-based
- measurementParameters: number in parenthesis is pA2, read-out: Ileum, pA2 (I=inhibitor) (converted)
Where a SMILES comes first, the peptide text is derived from it. [ ]: non-standard residue; d: D form. dPhe(F5) = N[C@H](Cc1c(F)c(F)c(F)c(F)c1F)C(=O)O; Oic = O=C(O)[C@@H]1C[C@@H]2CCCC[C@@H]2N1; Igl = N[C@H](C(=O)O)C1Cc2ccccc2C1; Hyp = O=C(O)[C@@H]1C[C@@H](O)CN1; NMeF = CN[C@@H](Cc1ccccc1)C(=O)O

# compound, targetUnderTest, Kb
measured = [
    ("N=C(N)NCCC[C@H](NC(=O)[C@H](Cc1c(F)c(F)c(F)c(F)c1F)NC(=O)[C@@H](Cc1c(F)c(F)c(F)c(F)c1F)NC(=O)[C@H](CO)NC(=O)[C@@H](NC(=O)CNC(=O)[C@@H]1C[C@@H](O)CN1C(=O)[C@@H]1CCCN1C(=O)[C@H](CCCNC(=N)N)NC(=O)[C@@H](N)CCCNC(=N)N)C1Cc2ccccc2C1)C(=O)O", "bradykinin receptors in Guinea Pig Ileum (Cavia porcellus)", "20 nM"),
    ("N=C(N)NCCC[C@@H](N)C(=O)N[C@@H](CCCNC(=N)N)C(=O)N1CCC[C@H]1C(=O)N1C[C@H](O)C[C@H]1C(=O)NCC(=O)N[C@@H](Cc1cccs1)C(=O)N[C@@H](CO)C(=O)N1Cc2ccccc2C[C@@H]1C(=O)N[C@@H](Cc1c(F)c(F)c(F)c(F)c1F)C(=O)N[C@@H](CCCNC(=N)N)C(=O)O", "bradykinin receptors in Guinea Pig Ileum (Cavia porcellus)", "3160 nM"),
    ("N=C(N)NCCC[C@@H](N)C(=O)N[C@@H](CCCNC(=N)N)C(=O)N1CCC[C@H]1C(=O)N1C[C@H](O)C[C@H]1C(=O)NCC(=O)N[C@H](C(=O)N[C@@H](CO)C(=O)N[C@H](Cc1c(F)c(F)c(F)c(F)c1F)C(=O)N[C@@H](Cc1c(F)c(F)c(F)c(F)c1F)C(=O)N[C@@H](CCCNC(=N)N)C(=O)O)C1Cc2ccccc2C1", "bradykinin receptors in Guinea Pig Ileum (Cavia porcellus)", "20 nM"),
    ("CN(C(=O)[C@H](CCCNC(=N)N)NC(=O)[C@H](N)CCCNC(=N)N)[C@@H](Cc1ccccc1)C(=O)N1C[C@H](O)C[C@H]1C(=O)NCC(=O)N[C@H](C(=O)N[C@@H](CO)C(=O)N[C@H](Cc1c(F)c(F)c(F)c(F)c1F)C(=O)N1[C@H](C(=O)N[C@@H](CCCNC(=N)N)C(=O)O)C[C@@H]2CCCC[C@@H]21)C1Cc2ccccc2C1 [Compound B10150] (H-[dR]R[NMeF][Hyp]G[Igl]S[dPhe(F5)][Oic]R-OH; N-terminus and C-terminus assumed)", "bradykinin receptors in Guinea Pig Ileum (Cavia porcellus)", "12.6 nM"),
    ("N=C(N)NCCC[C@@H](N)C(=O)N[C@@H](CCCNC(=N)N)C(=O)N1CCC[C@H]1C(=O)N[C@@H](C(=O)NCC(=O)N[C@H](C(=O)N[C@@H](CO)C(=O)N[C@H](Cc1c(F)c(F)c(F)c(F)c1F)C(=O)N1[C@H](C(=O)N[C@@H](CCCNC(=N)N)C(=O)O)C[C@@H]2CCCC[C@@H]21)C1Cc2ccccc2C1)C1Cc2ccccc2C1", "bradykinin receptors in Guinea Pig Ileum (Cavia porcellus)", "158 nM"),
    ("N=C(N)NCCC[C@@H](N)C(=O)N[C@@H](CCCNC(=N)N)C(=O)N1CCC[C@H]1C(=O)N[C@H](C(=O)NCC(=O)N[C@H](C(=O)N[C@@H](CO)C(=O)N[C@H](Cc1c(F)c(F)c(F)c(F)c1F)C(=O)N1[C@H](C(=O)N[C@@H](CCCNC(=N)N)C(=O)O)C[C@@H]2CCCC[C@@H]21)C1Cc2ccccc2C1)C1Cc2ccccc2C1", "bradykinin receptors in Guinea Pig Ileum (Cavia porcellus)", "7.94 nM"),
    ("N=C(N)NCCC[C@H](NC(=O)[C@@H]1C[C@@H]2CCCC[C@@H]2N1C(=O)[C@@H](Cc1c(F)c(F)c(F)c(F)c1F)NC(=O)[C@H](CO)NC(=O)[C@@H](NC(=O)CNC(=O)[C@@H]1C[C@@H](O)CN1C(=O)[C@@H]1CCCN1C(=O)[C@H](CCCNC(=N)N)NC(=O)[C@@H](CCCNC(=N)N)NC(=O)CN(CCCNC(=N)N)CCCNC(=N)N)C1Cc2ccccc2C1)C(=O)O", "bradykinin receptors in Guinea Pig Ileum (Cavia porcellus)", "12.6 nM"),
]
